meta.source: ChEMBL document CHEMBL5223122

assay: Clearance in Beagle dog at 1 mg/kg, iv; format: ADME, organism-based, Canis lupus familiaris; details: in vivo
PROPERTY_NAME: clearance (mL/min/kg)
Expressed in mL/min/kg, but write only the number.

**Query** Tell us which clearance value is on record for COCCCOc1cc2c(cc1OC)-c1cc(=O)c(C(=O)O)cn1[C@H](C(C)(C)C)CO2
**Result** 4.04

###

molecular target: Voltage-gated inwardly rectifying potassium channel KCNH2 (Homo sapiens, UniProt Q12809)
Sequence (Q12809 whole entry): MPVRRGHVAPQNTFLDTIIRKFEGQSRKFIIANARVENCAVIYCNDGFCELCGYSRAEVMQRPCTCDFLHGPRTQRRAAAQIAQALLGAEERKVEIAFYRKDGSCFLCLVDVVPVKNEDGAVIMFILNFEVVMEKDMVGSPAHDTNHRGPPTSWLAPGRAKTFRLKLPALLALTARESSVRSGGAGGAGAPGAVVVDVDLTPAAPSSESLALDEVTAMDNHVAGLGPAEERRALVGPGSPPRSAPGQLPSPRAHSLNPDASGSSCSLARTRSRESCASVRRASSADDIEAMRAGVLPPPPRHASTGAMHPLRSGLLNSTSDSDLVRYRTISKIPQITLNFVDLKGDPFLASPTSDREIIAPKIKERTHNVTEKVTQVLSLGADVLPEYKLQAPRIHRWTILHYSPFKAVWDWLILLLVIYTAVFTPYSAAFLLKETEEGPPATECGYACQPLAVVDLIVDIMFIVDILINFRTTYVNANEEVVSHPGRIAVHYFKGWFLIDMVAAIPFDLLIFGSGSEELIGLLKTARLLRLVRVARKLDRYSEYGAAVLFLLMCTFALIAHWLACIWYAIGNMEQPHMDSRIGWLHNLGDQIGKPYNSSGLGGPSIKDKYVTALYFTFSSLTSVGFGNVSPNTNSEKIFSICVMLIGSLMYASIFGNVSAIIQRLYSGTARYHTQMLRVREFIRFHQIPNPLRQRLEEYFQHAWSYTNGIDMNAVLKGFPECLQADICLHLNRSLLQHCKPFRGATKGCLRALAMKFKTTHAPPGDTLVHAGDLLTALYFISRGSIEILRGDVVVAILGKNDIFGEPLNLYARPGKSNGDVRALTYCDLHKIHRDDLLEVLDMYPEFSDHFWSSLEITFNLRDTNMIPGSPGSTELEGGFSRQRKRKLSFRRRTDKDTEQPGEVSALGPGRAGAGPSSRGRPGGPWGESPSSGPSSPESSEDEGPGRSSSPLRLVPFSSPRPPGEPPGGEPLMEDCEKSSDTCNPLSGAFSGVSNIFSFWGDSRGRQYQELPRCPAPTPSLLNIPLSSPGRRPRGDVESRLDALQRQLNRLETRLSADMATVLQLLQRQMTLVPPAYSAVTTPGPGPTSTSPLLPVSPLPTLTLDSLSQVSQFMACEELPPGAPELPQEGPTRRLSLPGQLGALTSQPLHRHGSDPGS
PROPERTY_NAME: IC50

**Query** Check the records and state IC50 for COCCCOc1cc2c(cc1OC)-c1cc(=O)c(C(=O)O)cn1[C@H](C(C)(C)C)CO2
**Result** > 30 µM
